Measured IC50 on HIV-Protease (Human immunodeficiency virus type 1 group M subtype B) follows.
API: value field is a number in µM; no unit string.

Q. Name the recorded IC50 of CC(C)[C@H](NC(=O)C(Cc1ccccc1)CS(=O)(=O)C(C)(C)C)C(=O)NC(CC1CCCCC1)B1OC(C)(C)C(C)(C)O1 (stereo partly drawn) , assay system HIV-Protease (Human immunodeficiency virus type 1 group M subtype B).
A. 9

Q. Name the recorded IC50 of CCC[C@H](NC(=O)C(Cc1ccccc1)CS(=O)(=O)C(C)(C)C)C(=O)NC(B1OC(C)(C)C(C)(C)O1)C1CCCCCC1 (stereo partly drawn) , assay system HIV-Protease (Human immunodeficiency virus type 1 group M subtype B).
A. 40

Q. Name the recorded IC50 of CC1(C)OB(C(CC2CCCCC2)NC(=O)[C@H](CC(N)=O)NC(=O)C(Cc2cccs2)CS(=O)(=O)C(C)(C)C)OC1(C)C (stereo partly drawn) , assay system HIV-Protease (Human immunodeficiency virus type 1 group M subtype B).
A. 100
